tgt: mouse Claudine18.2 (mouse) (UniProt P56857)
procedure.details: FACS on CHOK1-m18.2 cells
recorded.endpoint: FACS MFI
I'd appreciate a reply containing only the number, no unit.

Ab01 (antibody, V domains shown) VH: DVQLQESGPGLVKPSQSLSLTCSVTGYSITSGYYWNWIRQFPGNKLEWMGYITYDGSNNYNPSLKNRISITRDTSKNQFFLKLNSVTTEDAATYFCARDPNYYGTTLPAWFVYWGQGTLVTVSA VL: DIVVTQSHKFMSTSVGDRVSITCKASQDVGTAVAWYQQKPGQSPKLLIYWASTRHTGVPDRFTGSGSGTDFTLTISNVQSEDLTDYFCQQYSSYVTFGAGTKLELK | 12700

Measured FACS MFI of Ab05 (antibody, V domains shown) VH: DVKLVESGEDLVKPGGSLKLSCAASGFTFSNYAMSWVRQTPEKRLEWVAYVSSGGDYIYYADTVKGRFIISRDNARNTLYLQMNSLRSEDTAMYYCARVYFGNSLDYWGQGTTLTVSS VL: DIVMTQSPSSLTVTAGEKVTLSCKSSQSLLNGGNQKNYLTWYQQRPGQPPKLLIYWASTRESGVPDRFTGSGSGTDFTLIISSVQAEDLAVYYCQNDYYYPWTFGGGTKLEIK : 12500

Measured FACS MFI of Ab36 (antibody, V domains shown) VH: EVKLEESGGGLVQPGGSMKLSCVASGFTFSNYWMNWVRQSPEKGLEWVAQIRLKSDNYATHYAESVKGMFTISRDDSKSSVYLQMNNLRAEDTGIYYCTAGGDYWGQGTTLTVSS VL: DIVMTQSQKFMSTTVGDRVSITCKASQNVGTAVAWYHQKPGQSPKLLIYSASNRYTGVPDRFIGSGSGTDFTLTISNVQSEDLGNYFCQQYINYLLTFGSGTKLEIK : 21600
